Molecular target: T1, Recombinant Human TNF-α/TNFSF1A (human, UniProt P01375 77-233)
T1 construct: also called hTNF-α; huTNFα
T1 sequence (P01375 77-233 limits assumed): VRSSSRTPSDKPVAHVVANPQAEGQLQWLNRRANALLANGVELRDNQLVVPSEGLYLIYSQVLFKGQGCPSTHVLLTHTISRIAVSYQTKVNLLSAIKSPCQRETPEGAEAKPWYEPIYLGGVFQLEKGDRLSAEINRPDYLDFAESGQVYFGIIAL
Test: SPR (BIACORE), antibody captured, TNFα in solution
Description: The BIACORE assay (Biacore, Inc, Piscataway, N.J.) determines the affinity of antibodies with kinetic measurements of on-rate and off-rate constants. Binding of antibodies to a target antigen (for example, a purified recombinant target antigen) is determined by surface plasmon resonance-based measurements with a Biacore® 1000 or 3000 instrument (Biacore® AB, Uppsala, Sweden) using running HBS-EP (10 mM HEPES [pH 7.4], 150 mM NaCl, 3 mM EDTA, and 0.005% surfactant P20) at 25° C. […]
Exercise: state measured Kd for each of the binders provided.

Indicate the recorded Kd value for this binder: AB359 (antibody, V domains shown, Full-length humanized antibody made in HEK 293-6E; also called hMAK199VH.1a/hMAK199VL.1b) VH: EIQLVQSGSELKKPGASVKVSCKASGYTFTNYGMNWVRQAPGQGLEWMGWINTYTGEPTYADDFKGRFVFSLDTSVSTAYLQISSLKAEDTAVYFCARKFLTTVVVTDYAMDYWGQGTTVTVSS VL: DIQMTQSPSSLSASVGDRVTITCRASQDISNYLNWYQQKPGKAPKLLIYYTSRLQSGVPSRFSGSGSGTDYTLTISSLQPEDFATYYCQQGNTLPPTFGQGTKLEIK
0.73 nM

Indicate the recorded Kd value for this binder: AB369 (antibody, V domains shown, Full-length humanized antibody made in HEK 293-6E; also called hMAK199VH.2/hMAK199VL.1) VH: EVQLVQSGAEVKKPGASVKVSCKASGYTFTNYGMNWVRQAPGQGLEWMGWINTYTGEPTYADDFKGRVTMTTDTSTSTAYMELSSLRSEDTAVYYCARKFLTTVVVTDYAMDYWGQGTTVTVSS VL: DIQMTQSPSSLSASVGDRVTITCRASQDISNYLNWYQQKPGKAPKLLIYYTSRLQSGVPSRFSGSGSGTDFTLTISSLQPEDFATYYCQQGNTLPPTFGQGTKLEIK
1.1 nM

Indicate the recorded Kd value for this binder: AB384 (antibody, V domains shown, Full-length humanized antibody made in HEK 293-6E; also called hMAK199VH.2b/hMAK199VL.2) VH: EIQLVQSGAEVKKPGASVKVSCKASGYTFTNYGMNWVRQAPGQGLEWMGWINTYTGEPTYADDFKGRVTFTTDTSTSTAYMELSSLRSEDTAVYYCARKFLTTVVVTDYAMDYWGQGTTVTVSS VL: DVVMTQSPAFLSVTPGEKVTITCRASQDISNYLNWYQQKPDQAPKLLIKYTSRLQSGVPSRFSGSGSGTDFTFTISSLEAEDAATYYCQQGNTLPPTFGQGTKLEIK
2.1 nM
